ASSAY_EXPLANATION: yeast display, Sf9 membrane polyspecificity reagent, FACS + sequencing; frameworks hold sequencing errors
ATTRIBUTE_MEASURED: polyreactivity (PSR sort gate)

The following sequences have reported results that may help.
Returns the measured polyreactivity (PSR sort gate) for the input sequence. Input: `QVQRVESGGGLVQAGGSLRLSCAASGFIFWRYAMGWYRQAPGKERELVATITSSGGTTHYADSVKGRFTISRDNAKNTVYLQMNSLKPEDTAVYYCAKALVVQYGRYTGHPYDYWGQGTQVTVSS`
high polyreactivity

Returns the measured polyreactivity (PSR sort gate) for the input sequence. Input: `QVQLVESGGGLVQAGGSLRLSCAASGRTFWYYAMGWYRQAPGKAREWVATISYRGGSTYYADSVKGRFTISRDNAKNTVNLQMNSLKPEDTAVYYCAAKQWWGGRPKVDYWGQGTQVTVSS`
high polyreactivity

Returns the measured polyreactivity (PSR sort gate) for the input sequence. Input: `QVQLVESGGGLVQAGGSLRLSCAASGSIFATYAMGWYRQAPGKERELVADISWNGGSTYYADSVKGRFTISRDNAKNTVYLQMNSLKPEDTAVYYCAVGYWGRFGFRGYGYWGQGTQVTVSS`
low polyreactivity

Returns the measured polyreactivity (PSR sort gate) for the input sequence. Input: `QVQLVESGGGLVQAGGSLRLSCAASGFTFWRNVMGWYRQAPGKERELVAVISRGGSTNYADSVKGRFTISRDNAKNTVYLKMNSLIPEDTAVYYFAKYARGPSKVDYWGQGTQVTVSS`
high polyreactivity

Returns the measured polyreactivity (PSR sort gate) for the input sequence. Input: `QVQLLESGGGLVPSRGSLRLSCAASGFIFGHNTMGWYRQAPGKERELVARITSSGGGTNYADSVKGRFTISRDNAKNTVYLQMNSLKPEDTAVYYCAAELLYWGYYDYDYWGQGTQVTVSS`
high polyreactivity

// below: polyreactivity (PSR sort gate) requested for another sequence
Returns the measured polyreactivity (PSR sort gate) for the input sequence. Input: `QDQLVESGGGLVQAGGSHRLSCAASGRIFARNAMGWYRQAPGKERELVATIRVGGGSTYYADSVKGRFTISRDNAKNTVYLQLNSLKPEDTAVYDCAVRQLYSYPGDRRGYYWGQGTQVTVSS`
low polyreactivity

====

ASSAY_EXPLANATION: yeast display, Sf9 membrane polyspecificity reagent, FACS + sequencing; frameworks hold sequencing errors
ATTRIBUTE_MEASURED: polyreactivity (PSR sort gate)

The following sequences have reported results that may help.
Returns the measured polyreactivity (PSR sort gate) for the input sequence. Input: `QDQLLESGGGLVQAGGSLRLSCAASGRTFRYYTMGWYRQAPGKEREFVAAISSTGGTYYADSVKGRFTISRDNAKNTVYLQMNSLKPEDTAVYYCAATFIQFVVNVELYDYDYWGQGTQVTVSS`
low polyreactivity

Returns the measured polyreactivity (PSR sort gate) for the input sequence. Input: `QVQLVESGGGLVQAGGSLRLSCAASGSTFKQYAMGWYRQAPGKERELVAAISSSGSTYYADSVKGRFTISRDNAKNTVYLQMNSLKPEDTAVYYCARSRYLWYTVPPKYGYWGQGTQVTVSS`
high polyreactivity

Returns the measured polyreactivity (PSR sort gate) for the input sequence. Input: `QVQLVESGGGLVQAGCSLRLSCAASGSTFKRYAMGWYRQAPGKERELVASISSGGSTNYADSVKGRFTISRDNAKNTVYLQMNSLKPEDTAVYYCATRGHYRQTINYWGQGTQVSVSS`
high polyreactivity

Returns the measured polyreactivity (PSR sort gate) for the input sequence. Input: `QVQLQESGGGLVQAGGSLRLSCAATGTIFTDRFMGWYLQAPGKERELVACISPGTSTNYADSVKGRFTISRDNAKNTVYLKINSLKPEDTAVYYCAADWSTGNNLPYWGQGTQVTVSS`
high polyreactivity

New cases:
Returns the measured polyreactivity (PSR sort gate) for the input sequence. Input: `QVQLVESGGGLVQAGGSLRLSCAASGNIFLYYTMGWYRQAPGKERELVAGITSGGSTYYADSVKGRFTISRDNAKNTVSLQMNSLKPEDTAVYYCAATYYPNFYRYYYWGQGTQVTVSS`
low polyreactivity

====

ASSAY_EXPLANATION: yeast display, Sf9 membrane polyspecificity reagent, FACS + sequencing; frameworks hold sequencing errors
ATTRIBUTE_MEASURED: polyreactivity (PSR sort gate)

Returns the measured polyreactivity (PSR sort gate) for the input sequence. Input: `QVQLVESGGGLDQAGGSLRLSCAASGSTFPSYAMGWYRQAPGKERELVAAINSGGGTNYADSVKGRFTISRDNAKNTVYLQMNSLKPEDTAVYYCAKSRYDYTKTEGGYWGQGTQVTVSS`
low polyreactivity

Returns the measured polyreactivity (PSR sort gate) for the input sequence. Input: `QVQLVESGGGLVQAGGSLRLSCAASGLTFAYNAMGWYRQAPGKARQLVASINWSDSSTYYADSVKGRFTISRDNAKNTVYLQMHSLKPEDTEVYYCAADAYYVGQGYDYGGQGTQVTVSS`
low polyreactivity

====

ASSAY_EXPLANATION: yeast display, Sf9 membrane polyspecificity reagent, FACS + sequencing; frameworks hold sequencing errors
ATTRIBUTE_MEASURED: polyreactivity (PSR sort gate)

The following sequences have reported results that may help.
Returns the measured polyreactivity (PSR sort gate) for the input sequence. Input: `QVQLEESGGGLVQAGGSLRLSCAASGSIFSYYVMGWYRQAPGKERELVARNSKRGVTTYYADSVKGRFTISRDNAKNTVYLQMNSLKPEDTAVYFCAASVWRDRIYRYEYWGQGTQVTVSS`
high polyreactivity

Returns the measured polyreactivity (PSR sort gate) for the input sequence. Input: `QVQLVESGGGLVQAGGSLRLSCAASGFIFAYYAMGWYRQAPGKERELVAAISSSGGRTYYADSVKGRFTISRDNAKNTVYLQMNSLQPEDTAVYYCAATLSYYVGVRYDYWGQGTQVTVSS`
high polyreactivity

Returns the measured polyreactivity (PSR sort gate) for the input sequence. Input: `QVQLVESGGGLVQAGGSLRLSCAASGSTFYIYAMGWYRQAPGKERELVAAISGRGGSTYYADSVKGRFTISRDNAKNTVYLQMNSLKPEDTAVYYCATSLRVRRSSRDYWGQGTQVTVSS`
high polyreactivity

Returns the measured polyreactivity (PSR sort gate) for the input sequence. Input: `QVQLVESGGGLVQAGGSLRLSCAASGSIIDRYAMGWYRQAPGKERELVAAISRSGGSTYYADSVKGRFTISRDNAKNTVYLQMKSLKPEDTAFYYCAAGGDSGDDWGQGTQVTVSS`
low polyreactivity

// below: polyreactivity (PSR sort gate) requested for another sequence
Returns the measured polyreactivity (PSR sort gate) for the input sequence. Input: `QVQLVESGGGLVQAGGSLRLSCAASGSIFRPNAMGWYRQAPGKERELVAAITWSGDSTYYADSVKGRFTLSRDNAKNTVYRQMNSLKPVDTAVYYCATDPDYVLYRTAYYEFDYWGQGTHVTVSS`
low polyreactivity

====

ASSAY_EXPLANATION: yeast display, Sf9 membrane polyspecificity reagent, FACS + sequencing; frameworks hold sequencing errors
ATTRIBUTE_MEASURED: polyreactivity (PSR sort gate)

Returns the measured polyreactivity (PSR sort gate) for the input sequence. Input: `QVQHVESGGGLVQAGGSLRLSCAASGRTSNIYAMGWYRQAPGKERELVAAIRTGGSTNYADSVKGRFTISRDNAKNTVYLQMNSLKPEDTAVYYCAATSRRSRPAEEYWGQGTQVTVSS`
high polyreactivity

Returns the measured polyreactivity (PSR sort gate) for the input sequence. Input: `QVQLVESVGGLVQAGGSLRLSCAASVYTFPRYTMGWYRQAPGKERELVAAINWSGGSTYYADSVKRRFTISRDNAKNTVYLQMNSLKPEDTAVYYCNKAYVSRYDYWGQGTQVTVSS`
high polyreactivity

Returns the measured polyreactivity (PSR sort gate) for the input sequence. Input: `QVQLVESGGGLVQAGGSLRLSCAASGFTFRRNAMGWYRQAPGKERELVAAITYNGGTTYYADSVKGRFTISRDYAKNTVYLQMNSLKPVDTAVYYCNAPYGRQGYDYWGQGTQVTVSS`
low polyreactivity

Returns the measured polyreactivity (PSR sort gate) for the input sequence. Input: `QDQLVESGGGLVQAGGRLRLSCAASGSTFRRYAMGWYRQAPGTERDWVAAISGGGGSTYYADSVKGRFTISRDNAKNTVYLQMNSLKPEDTAVYYCNIPFPYYPDGPNGYDYWGQGTQVTVSS`
low polyreactivity

// below: polyreactivity (PSR sort gate) requested for another sequence
Returns the measured polyreactivity (PSR sort gate) for the input sequence. Input: `QDQLVESGGGLVQAGGSLRLSCAASGSTFGYYAMGWYRQAPGKERELVAAISWRGGTYYADSVKGRFTISRDNAKNTVYLQMNSLKPEDTAVYYCAADDYIVSRYRYGVRYGYWGQGTQVTVSS`
high polyreactivity

====

ASSAY_EXPLANATION: yeast display, Sf9 membrane polyspecificity reagent, FACS + sequencing; frameworks hold sequencing errors
ATTRIBUTE_MEASURED: polyreactivity (PSR sort gate)

The following sequences have reported results that may help.
Returns the measured polyreactivity (PSR sort gate) for the input sequence. Input: `QVQLVESGGGLVQAGGSLRLRCAASGRIFGRYAMGWYRQAPGKERELVARITYIAGNTYYADSVKGRFTISRDNSKNTVYLQMKSLKPEDTAVYSCNADSYYIQYDYWGQGTQVTVSS`
high polyreactivity

Returns the measured polyreactivity (PSR sort gate) for the input sequence. Input: `QVQLVESGGGLVQAGGSLRLSCAASGSIFGLNALGWSRQAPGKERELVAGITWSGGSSTYYADSVKGRFTISRDYAKNTVYLQMNSLKPEDTAVYNCAARRVFIPYYVRFYYWGQGTQVTVSS`
high polyreactivity

Returns the measured polyreactivity (PSR sort gate) for the input sequence. Input: `QVQLVESGGGLVQAGGSLRLSCAASGRSSTRNAMGWYRQAPGKERELVAAITRSGGGTYYADSVKGRFTISRDNAKNTVYLQMNSLKPEDTAVYYCAADQLSPSDGYEYWGQGTQVTVSS`
low polyreactivity

Returns the measured polyreactivity (PSR sort gate) for the input sequence. Input: `QVQLVESGGGLVQAGGSLRLTWAATGSIFRTNAMGSYRPAPGKERELVAAITGSGGSTYYADSVKGRFTISRYNAKNTVYLQMNCLKPEETAVYYCAAEFGSFVSPYNYYYWGQGTQVTVSS`
low polyreactivity

Returns the measured polyreactivity (PSR sort gate) for the input sequence. Input: `QVQLVESGGGLVQPGGSLRLSCAASGFIFSYYAIGWYRQAPGKERELVAAISYRGGSTHYADSVKGRFTISRDNAKNTVYLQMNSLKPEDTAVYYCAADRVRRPSPVGMDYWGQGTQVTVSS`
high polyreactivity

New cases:
Returns the measured polyreactivity (PSR sort gate) for the input sequence. Input: `QVQLVESGGGLVQAGGSLRLSCAASGFIFGSYTMGWYRQAPGKERELVAAITTGGSTNYADSVKGRFTISRDNAKNTVYLQMNSLKPEDTAVYYCAARTVGFYRYDYWGQGTQVTVSS`
low polyreactivity

Returns the measured polyreactivity (PSR sort gate) for the input sequence. Input: `QVQLVESGGGLVQAGGSLRLSCAASGSTFRKYAMGWYRQAPGTEREFVAAITWSTGTTYYADSVKGRFTISRDNAKNTVYLQMNSLKPEDTAVYYCAADSQPPHELYESIEHESWGQGTQVTVSS`
low polyreactivity

Returns the measured polyreactivity (PSR sort gate) for the input sequence. Input: `QVQLVESGGGLFQAGGSLRLSCAASGFIFARNAMSWYRQAPGKERELVAAISRNGGRTSYADSVKGRFTISRDNAKNTVYLQMNSMKAEDTAVYYCAKSQGYVSWTGAYSYDYWGQGTQVTVSS`
high polyreactivity

Returns the measured polyreactivity (PSR sort gate) for the input sequence. Input: `HVQLVESGGGLVQAGGSLRLSCAASGRIFVDYVMGWYRQAPGKERELVARITWIGGNTYYADSVKGRFTISRDNAKNTVYFQMNCLKPEDTAVYYSNAGLTLLSRRHEGWYGDDYWGPGTQVTVSS`
low polyreactivity

Returns the measured polyreactivity (PSR sort gate) for the input sequence. Input: `QVQLVESGGGLVQAGGSLRLSCAASGRTFNFNVMGWYRQAPGKESQLVAAISKSTGSTFYADSVKGRFTISRDNAKNTVYLQMNSLKPEDTAVYYCNAVRCYGSGRGYGYCGQGTQVTVSS`
high polyreactivity

Returns the measured polyreactivity (PSR sort gate) for the input sequence. Input: `QVQLVESGGGLVQAGGSLRLSCAASGSIFSTYAMGWYRQAPVKERELVAAINSGDSTSYADSVKGRFTISRDNAKNTVYLQMNSLKPEDTAVYYCAAKTGGYWYLRRTARYESWGQGTQVTVSS`
low polyreactivity
